tested on: biotinyl-Leu-oxazolone; experiment: self-aminoacylation, catalytic enhancement (BLO) (fold over background); higher = more active; k-Seq, kA / k0A0; sequences stand for … in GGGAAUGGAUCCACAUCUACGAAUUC…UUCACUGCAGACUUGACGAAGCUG
Fewer inactive variants are shown than the library holds.
QUANTITY: self-aminoacylation

- AUUCCCCUAGGUCAUCGGUUG [Fam2.2 aminoacylation ribozyme variant]: 3.94
- CUACUCCAAACAAUCGGUCUC [Fam1A.1 aminoacylation ribozyme variant]: 0.513
- CUACUUCAAUCAUUCGGUCUG [Fam1A.1 aminoacylation ribozyme variant]: 0.896
- AUUCUCUUAGGUCAUCGGGUG [Fam2.2 aminoacylation ribozyme variant]: 12.5

Reference for the values: the supplement of paper PMC9233669
